Test system: MCF-7 (breast cancer)
MEASUREMENT DESCRIPTION: MTT cytotoxicity assay, MCF-7
Assay type: cell-based, human
CONDITION SUMMARY: 48 h
pIC50: −log10 of the molar value.
PARAMETER: pIC50

- N.N.[Cl][Pt][Cl] [Cisplatin]: 4.79
- Cc1ccc2ccc3ccc(C)nc3c2n1.Cc1ccc2ccc3ccc(C)nc3c2n1.O=C1[O][Ru][O]c2ccccc21 [Ru-2, [Ru(dmp)2(SA)]]: 4.34
- [Cl-].[Cl-].[Ru+2].c1ccc(-c2ccnc3c2ccc2c(-c4ccccc4)ccnc23)cc1.c1ccc(-c2ccnc3c2ccc2c(-c4ccccc4)ccnc23)cc1 [Ru(dip)2Cl2, cis-[Ru(dip)2Cl2]]: 3.87
- O=C1[O][Ru][O]c2ccccc21.c1ccc(-c2ccnc3c2ccc2c(-c4ccccc4)ccnc23)cc1.c1ccc(-c2ccnc3c2ccc2c(-c4ccccc4)ccnc23)cc1 [Ru-1, [Ru(dip)2(SA)]]: 4.53
